The measurements presented in this section are drawn from ChEMBL document CHEMBL1201862.

- System: CCRF-CEM
- protocol notes: NCI tumour cell line growth inhibition, 48 h
Active and inactive are the calls of the source. Cut-off read from the data, not from the text of the source: active = GI50 up to about 1.1 µM and inactive = higher. Where a SMILES comes first, the peptide text is derived from it. [ ]: non-standard residue; d: D form. The star is where a group is joined. Phe(4-NO2) = N[CH](Cc1ccc([N+](=O)[O-])cc1)C(=O)O; Cbz = O=C(OCc1ccccc1)*
Listed compounds paired with reported GI50

compound	tested system	GI50
C/C(=C1\N=C(c2ccccc2)OC1=O)c1ccccc1	CCRF-CEM	> 100 µM (inactive)
CCOC(=O)C(Oc1ccc(OC)c2c1C(=O)CCC2)c1ccccc1 (centres undefined)	CCRF-CEM	65.5 µM (inactive)
COc1cc(C=O)cc(/C=N/N=C/c2ccccc2O)c1O	CCRF-CEM	8.85 µM (inactive)
CC1=NN(c2nc(N)nc(-c3cc4ccccc4oc3=N)n2)C(C)(C)C1	CCRF-CEM	20.7 µM (inactive)
Cc1ccc(S(=O)(=O)N/N=C(\c2nc3ccc([N+](=O)[O-])cc3[nH]c2=O)C(O)c2ccc([N+](=O)[O-])cc2)cc1 (centres undefined)	CCRF-CEM	22.3 µM (inactive)
CCOC(=O)CCC(NC(=O)OCc1ccccc1)C(=O)NC(CCC(=O)OCC)C(=O)NC(Cc1ccc([N+](=O)[O-])cc1)C(=O)NC(CCC(=O)OCC)C(=O)NC(CCC(=O)OCC)C(=O)OCC (centres undefined) (Cbz-E(OEt)E(OEt)[Phe(4-NO2)]E(OEt)E(OEt)-OEt; configuration not given here)	CCRF-CEM	> 100 µM (inactive)
NNC(=O)/C(=C/c1ccc(Cl)cc1Cl)NC(=O)c1ccccc1	CCRF-CEM	79.8 µM (inactive)
Cc1ccc(S(=O)(=O)[N-]C2C(=O)c3ccccc3C(=O)C2[n+]2cccc(C(N)=O)c2)cc1 (centres undefined)	CCRF-CEM	> 100 µM (inactive)
CC(=O)Nc1ccc(-c2nc3ccccc3s2)cc1I	CCRF-CEM	> 100 µM (inactive)
COC1OC(CS(=O)(=O)O)C(O)C(O)C1O (centres undefined)	CCRF-CEM	> 100 µM (inactive)
CCCCc1ccc(Nc2nc(Cl)c3c(ncn3COCCOC(C)=O)n2)cc1	CCRF-CEM	28.2 µM (inactive)
c1ccc(C2CC(NC3CCCCC3)=Nc3ccccc3N2)cc1 (centres undefined)	CCRF-CEM	34.9 µM (inactive)
Cc1ccc(S(=O)(=O)n2ccc(-c3ccc4ccn(S(=O)(=O)c5ccc(C)cc5)c4c3)c2)cc1	CCRF-CEM	> 100 µM (inactive)
Cc1ccc(C2SCC(=O)N2NC(=O)c2ccncc2)s1 (centres undefined)	CCRF-CEM	> 100 µM (inactive)
c1ccc2c(c1)CCc1c-2n(CCN2CCCCC2)c2ccccc12	CCRF-CEM	15.6 µM (inactive)
Cc1cn(C2CC(N/C(=N/C#N)NCC3OC(n4cnc5c(N)ncnc54)CC3O)C(CO)O2)c(=O)[nH]c1=O (centres undefined)	CCRF-CEM	> 100 µM (inactive)
CN(C)CCCNc1nnc(NCCCN(C)C)c2c(=O)c3sccc3[nH]c12	CCRF-CEM	9.48 µM (inactive)
NC(=O)Cc1nc2c(O)ncnc2n1C1OC(CO)C(O)C1O (centres undefined)	CCRF-CEM	> 100 µM (inactive)
C=C(CCC(C(=O)O)C1CCC2(C)C3=C(CCC12C)C1(C)CCC(O)C(C)(C)C1CC3)C(C)C (centres undefined)	CCRF-CEM	> 10 µM (inactive)

* * *

Listed compounds paired with reported GI50
- System: SK-MEL-2
- protocol notes: NCI tumour cell line growth inhibition, 48 h
Activity calls are given as the source filed them. No stated cut-off is given here; in the data, active = GI50 up to about 1.1 µM and inactive = higher. Where a SMILES comes first, the peptide text is derived from it. [ ]: non-standard residue; d: D form. The star is where a group is joined. Phe(4-NO2) = N[CH](Cc1ccc([N+](=O)[O-])cc1)C(=O)O; Cbz = O=C(OCc1ccccc1)*

compound	tested system	GI50
CC(=O)NNc1nc(C)c(C(/C=C/c2ccc(/C=C/C(=N\NC(=O)c3ccncc3)c3sc(NNC(C)=O)nc3C)cc2)=N/NC(=O)c2ccncc2)s1	SK-MEL-2	> 100 µM (inactive)
COC(=O)C1CC2C=CC1N(C(=O)OCc1ccccc1)C2 (stereo not given)	SK-MEL-2	> 100 µM (inactive)
CCOC(=O)c1sc(N)nc1N1CCCC1	SK-MEL-2	> 100 µM (inactive)
CC(=O)[C@H]1CCC2[C@@H]3CC=C4C(O)C(OS(=O)(=O)O)CC[C@]4(C)C3CC[C@@]21C (stereo not given in full)	SK-MEL-2	> 100 µM (inactive)
COC(=O)c1c(O)ccc2c1c1c(n2Cc2ccccc2OC)C(=O)c2ccccc2C1	SK-MEL-2	87.5 µM (inactive)
CN1C(c2ccccc2)CS(=O)(=O)CS1(=O)=O (stereo not given)	SK-MEL-2	> 100 µM (inactive)
c1ccc2c(c1)-c1nc3ccccc3cc1C2N1CCOCC1 (stereo not given)	SK-MEL-2	> 100 µM (inactive)
NC1CCCCC1	SK-MEL-2	169 µM (inactive)
CCCCCCCCCCCCCCCC[N+](C)(C)Cc1ccc(C[N+](C)(C)CCCCCCCCCCCCCCCC)cc1	SK-MEL-2	2.04 µM (inactive)
COc1ccc(NS(=O)(=O)c2ccc(/N=C3\C=C(Nc4ccc(S(=O)(=O)Nc5ccc(OC)nn5)cc4)C(=O)c4ccccc43)cc2)nn1	SK-MEL-2	16.9 µM (inactive)
COc1cc2[nH]c3c(c2cc1OC)CCN[C@@]31CC[C@@]2(CC3c4c(cc(OC)c(O)c42)CCN3C)C[C@@H]1OC (stereo not given in full)	SK-MEL-2	17.8 µM (inactive)
O=c1oc2cc(O)ccc2c(O)c1C(c1ccccc1F)c1c(O)c2ccc(O)cc2oc1=O	SK-MEL-2	45 µM (inactive)
CCOC(=O)c1nc2ccccc2nc1Nc1ccc(OC)cc1	SK-MEL-2	33.7 µM (inactive)
Nc1ccn(CCOC(c2ccccc2)P(=O)(O)O)c(=O)n1 (stereo not given)	SK-MEL-2	> 100 µM (inactive)
CC1C(=O)N(c2ccccc2)NC12CCCc1ccccc12 (stereo not given)	SK-MEL-2	> 100 µM (inactive)
COc1ccc(-c2c3c(n(C4OC(CO)C(O)C(O)C4O)c(=S)c2C#N)CCC3)cc1 (stereo not given)	SK-MEL-2	58.5 µM (inactive)
C=C1C(=O)OC2CC3(C)CCCC(C)C3=CC12 (stereo not given)	SK-MEL-2	10.4 µM (inactive)
COC(=O)C(Cc1ccccc1)NP(=O)(O)OCC1OC(n2ccc(N)nc2=O)C(O)C1O (stereo not given)	SK-MEL-2	> 100 µM (inactive)
COc1ccc(/C=N/c2c(O)ccc3ccccc23)cc1OC	SK-MEL-2	> 100 µM (inactive)
c1ccc(C2CC(NC3CCCCC3)=Nc3ccccc3N2)cc1 (stereo not given)	SK-MEL-2	> 100 µM (inactive)
COc1ccc(Cc2nccc3cc(OC)c(OC)cc23)cc1	SK-MEL-2	> 100 µM (inactive)
COc1cc(CCC(=O)NS(=O)(=O)c2ccccc2)cc(OC)c1OC	SK-MEL-2	> 100 µM (inactive)
Nc1nc(N)c(N=O)c(Nc2ccc(Br)cc2)n1	SK-MEL-2	21.4 µM (inactive)
Cc1ccc(S(=O)(=O)n2ccc(-c3ccc4ccn(S(=O)(=O)c5ccc(C)cc5)c4c3)c2)cc1	SK-MEL-2	> 100 µM (inactive)
COC(=O)c1cc(C)ccc1C1CN=NC12Cc1c(C)cc(C)cc1C2=O (stereo not given)	SK-MEL-2	16.4 µM (inactive)
COc1ccc(/C=C/C(=O)c2c(-c3ccccc3)nn(C)c(=O)c2N2CC2C)cc1 (stereo not given)	SK-MEL-2	21.8 µM (inactive)
COc1ccc(C(=O)/C=C/c2ccc(OCCCOc3ccc(/C=C/C(=O)c4ccc(OC)c(OC)c4)cc3)cc2)cc1OC	SK-MEL-2	> 100 µM (inactive)
COC(=O)C(=O)c1cc2ccccc2n1S(=O)(=O)c1ccccc1	SK-MEL-2	> 100 µM (inactive)
C=C1C(=O)O[C@H]2C[C@@]3(C)[C@H](O)CCC(=C)[C@@H]3[C@@H](OC(C)=O)[C@H]12	SK-MEL-2	15.9 µM (inactive)
Cc1cn(C2CC(N/C(=N/C#N)NCC3OC(n4cnc5c(N)ncnc54)CC3O)C(CO)O2)c(=O)[nH]c1=O (stereo not given)	SK-MEL-2	> 100 µM (inactive)
Clc1ccc(-c2nnc(-c3nsc4ccccc34)o2)cc1	SK-MEL-2	28.5 µM (inactive)
CCC1(OC(=O)CN)C(=O)OCc2c1cc1n(c2=O)Cc2cc3ccccc3nc2-1 (stereo not given)	SK-MEL-2	0.0794 µM (active)
COc1ccc(-n2c(=O)n(-c3ccccc3)c(=O)n2-c2ccc(OC)cc2)cc1	SK-MEL-2	> 100 µM (inactive)
CCOC(=O)CCC(NC(=O)OCc1ccccc1)C(=O)NC(CCC(=O)OCC)C(=O)NC(Cc1ccc([N+](=O)[O-])cc1)C(=O)NC(CCC(=O)OCC)C(=O)NC(CCC(=O)OCC)C(=O)OCC (stereo not given) (Cbz-E(OEt)E(OEt)[Phe(4-NO2)]E(OEt)E(OEt)-OEt; configuration not given here)	SK-MEL-2	> 100 µM (inactive)
COC(=O)C(CC(C)=O)CS(=O)(=O)CC(=O)C(=O)Nc1cccc([N+](=O)[O-])c1 (stereo not given)	SK-MEL-2	> 100 µM (inactive)
COC(=O)c1ccc(CCc2cc(O)ccc2O)cc1	SK-MEL-2	18.8 µM (inactive)
Nc1ccc(-c2nc3ccc(F)cc3s2)cc1Cl	SK-MEL-2	> 84.1 µM (inactive)
O=C1OCC2=C1C(c1ccc3c(c1)OCO3)c1cc3c(cc1O2)OCO3 (stereo not given)	SK-MEL-2	0.375 µM (active)
Cc1cc(O)cc(O)c1C(=O)O[C@]1(C)C(=O)C=C2C=C(/C=C/C(=O)O)OC=C2C1=O	SK-MEL-2	> 100 µM (inactive)
O=c1[nH]c2cccccc-2c1-c1nc2ccccc2[nH]1	SK-MEL-2	24.3 µM (inactive)
